Hey, just so you know, these numbers are from the kinase profiling compilation of Christmann-Franck et al. (2016).

- Subject of test: STK17A (human)
- Test name: KINOMEscan competition binding
- Study conditions: compound 10.0 µM
Quick list: kinase still bound, per cent of control per entry.

{"Mol": "CCCS(=O)(=O)Nc1ccc(F)c(C(=O)c2c[nH]c3ncc(-c4ccc(Cl)cc4)cc23)c1F", "Uom": "%", "kinase still bound, per cent of control": 62}
{"Mol": "C[C@@H](Oc1cc(-n2cnc3ccc(CN4CCN(C)CC4)cc32)sc1C(N)=O)c1ccccc1C(F)(F)F", "Uom": "%", "kinase still bound, per cent of control": 100}
{"Mol": "CCN1CCN(Cc2ccc(Nc3ncc4c(n3)N(C)c3ccccc3C(=O)N4C)cc2C(F)(F)F)CC1", "Uom": "%", "kinase still bound, per cent of control": 100}
{"Mol": "N#Cc1c(NC(=O)c2cccc3ccccc23)sc2c1CCCC2", "Uom": "%", "kinase still bound, per cent of control": 100}
{"Mol": "Cc1cc([C@@H](C)Nc2ccccc2C(=O)O)c2nc(N3CCOCC3)cc(=O)n2c1", "Uom": "%", "kinase still bound, per cent of control": 98}
